# Method Description: Inhibition of Aeromonas hydrophila ATCC 7966 beta-lactamase L1 expressed in Escherichia coli LMG194 using FC3 as substrate preincubated for 10 mins followed by substrate addition by fluorescence assay
# Parameters: species or system Aeromonas hydrophila subsp. hydrophila ATCC 7966
pIC50: −log10 of the molar value.
Measured Quantity: pIC50

# Compound, Test Value
rows = [
    ("OCC(S)CS (stereo unspecified)", 5.59),
]

---

A collection of molecules and their measured IC50
# Method Description: Inhibition of Aeromonas hydrophila ATCC 7966 CphA expressed in Escherichia coli LMG194 using CPC-1 as substrate preincubated for 10 mins followed by substrate addition by fluorescence assay
# Set-up: species or system Aeromonas hydrophila subsp. hydrophila ATCC 7966

# Molecule, IC50 / µM
rows = [
    ("OCC(S)CS (configuration not stated) [DIMERCAPROL]", 7.8),
    ("O=C(O)c1cccc(C(=O)O)n1 [DIPICOLINIC ACID]", 61.5),
]

# credit: ChEMBL document CHEMBL4308890
